Where do the numbers come from? From patent US20200270325A1.

- tested_on: human GLP-1 receptor (GLP1R) (human, UniProt P43220 24-463)
- experiment_description: cell-based or functional assay
Numbered stars: 1 amine (or outer) side, 2 acyl side, 3 side chain; on linkers, the order of the positions; unused ones are H or OH. Square brackets hold non-standard residues; d marks the D form. Side chains are listed from the residue outwards. Ends that are not written are not given here. * marks the point of attachment. C18 diacid = O=C(O)CCCCCCCCCCCCCCCCC(=O)*; γGlu = O=C(O)[C@H](CCC(=O)[*:2])N[*:1]; Met(O2) = CS(=O)(=O)CC[C@H](N)C(=O)O; αMeD = C[C@](N)(CC(=O)O)C(=O)O; AEEA = NCCOCCOCC(=O)O; Aib = CC(C)(N)C(=O)O
recorded_endpoint: GLP1R EC50 human (nM)
Please respond with the number in nM and leave the unit unwritten.

**Q:** Look up and report measured GLP1R EC50 human for this entry: H[Aib]QGTFTSDYSKYLDARAAK([AEEA-AEEA-γGlu-C18 diacid])EFVQWL[Met(O2)][αMeD] (not fully specified (C-terminus); printed as HUQGTFTSDYSKYLDARAAK(PEG2PEG2γEC18-OH)EFVQWL2αMDT-NH2) [TP713]
**A:** 0.71
